test system: CCRF-CEM leukemia; test: NCI-60 one-dose screen, 48 h; settings: 10 µM
This is part of a sample that, as a whole, favours compounds with a hit. Of some 83,000 tested, about 20% had one in any assay. Activity calls are given as the source filed them. The calls were made as follows: active = growth percent below 10; inactive = the rest.
Classes used: active, inactive

smiles.entry: Cc1ccc(-c2nc3ccc(C(=O)N=Nc4c(O)[nH]c5ccc(Br)cc45)cc3[nH]2)cc1
tested.on: CCRF-CEM leukemia
cat: inactive

smiles.entry: COc1cc(/C=C/C(=O)c2cc(OC)c(OC)c(OC)c2)ccc1Oc1nc(Nc2ccc(F)cc2)nc(N(C)C)n1
tested.on: CCRF-CEM leukemia
cat: active

smiles.entry: COc1cccc2nc(Nc3ccc(F)c(NC(=O)c4ccc(CN5CCN(C)CC5)c(C(F)(F)F)c4)c3)ccc12
tested.on: CCRF-CEM leukemia
cat: active

smiles.entry: COc1ccc(N(C)c2cc(C#N)nc3ccccc23)cc1/C=C/C(=O)NO
tested.on: CCRF-CEM leukemia
cat: active

smiles.entry: CN1CCCN(Cc2ccc(C(=O)Nc3cccc(Nc4ccc5c(O)cccc5n4)c3)cc2C(F)(F)F)CC1
tested.on: CCRF-CEM leukemia
cat: active

smiles.entry: O=C(Cn1nc(-c2ccccc2)ccc1=O)NN1C(=O)c2ccccc2C1=O
tested.on: CCRF-CEM leukemia
cat: inactive

smiles.entry: N#C/C(=C\c1ccc(N(c2ccccc2)c2ccccc2)cc1)C(N)=O
tested.on: CCRF-CEM leukemia
cat: inactive

smiles.entry: CC(=O)Nc1ccc(-c2cn(-c3cccc(C(=O)Nc4cc(CN5CCOCC5)cc(C(F)(F)F)c4)c3)nn2)cn1
tested.on: CCRF-CEM leukemia
cat: active

smiles.entry: O=C(NO)c1ccc(Cn2ccc3c(NCc4ccccc4)ncnc32)cc1
tested.on: CCRF-CEM leukemia
cat: active
